Values were extracted from patent US12594276B2.

assayExplanation: Compound cytotoxicity, XTT-based colorimetric assay
Format: cell-based
measurementParameters: human; uninfected MT2 cells, day 4, XTT; read-out: CC50
measuredAttribute: CC50 at 4 days

// known answers, use as guide
>>> resultvalue("Cc1cc(C2(F)CCC(F)(F)CC2)nc2nc([C@H](Cc3cc(F)cc(F)c3)NC(=O)Cn3nc([C@H]4CC4(F)F)c4c3C[C@H]3C[C@@H]43)n(-c3ccc(Cl)c4c(NS(C)(=O)=O)nn(CCN5C[C@@H](C)O[C@@H](C)C5)c34)c(=O)c12 (atropisomer, axis not shown; (P))")
"> 20 nM"
>>> resultvalue("CS(=O)(=O)Nc1nn(CCN2C[C@H](F)C[C@H](F)C2)c2c(-n3c([C@H](Cc4cc(F)cc(F)c4)NC(=O)Cn4nc(C5CC5)c5c4C[C@@H]4C[C@H]54)nc4nc(C5CCC(F)(F)CC5)cc(C(F)F)c4c3=O)ccc(Cl)c12 (atropisomer, axis not shown; (P))")
"> 50 nM"
>>> resultvalue("COCCCn1nc(NS(C)(=O)=O)c2c(Cl)ccc(-n3c([C@H](Cc4cc(F)cc(F)c4)NC(=O)Cn4nc(C(F)F)c5c4C(F)(F)[C@@H]4C[C@H]54)nc4nc(C5CCC(F)(F)CC5)cc(NCC5(F)CCOCC5)c4c3=O)c21 (atropisomer, axis not shown; (P))")
"> 20 nM"
>>> resultvalue("CNCc1cc(C2CCC(F)(F)CC2)nc2nc([C@H](Cc3cc(F)cc(F)c3)NC(=O)Cn3nc(C(F)F)c4c3C(F)(F)[C@@H]3C[C@H]43)n(-c3ccc(Cl)c4c(NS(C)(=O)=O)nn(CCCOC)c34)c(=O)c12 (atropisomer, axis not shown; (P))")
"> 20 nM"

Consider the record given below.
Lab note: measured CC50 at 4 days of COCCCn1nc(NS(C)(=O)=O)c2c(Cl)ccc(-n3c([C@H](Cc4cc(F)cc(F)c4)NC(=O)Cn4nc(C(F)F)c5c4C(F)(F)[C@@H]4C[C@H]54)nc4nc(C5CCC(F)(F)CC5)cc(NCC(C)(C)N5CCCCC5)c4c3=O)c21 (atropisomer, axis not shown; (P)) was > 20 nM

###

assayExplanation: Compound cytotoxicity, XTT-based colorimetric assay
Format: cell-based
measurementParameters: human; uninfected MT2 cells, day 4, XTT; read-out: CC50
Protocol: Compound cytotoxicity and the corresponding CC50 values were determined using the same protocol as described in the antiviral assay except that uninfected cells were used. Cytotoxicity was assessed on day 4 in uninfected MT2 cells by using an XTT (2,3-bis[2-Methoxy-4-nitro-5-sulfophenyl]-2H-tetrazolium-5-carboxyanilide inner salt)-based colorimetric assay (Sigma-Aldrich, St Louis, Mo).
measuredAttribute: CC50 at 4 days

Consider the reported CC50 at 4 days for these molecules:
>>> resultvalue("CS(=O)(=O)Nc1nn(CCN2CCC(F)(F)CC2)c2c(-n3c([C@H](Cc4cc(F)cc(F)c4)NC(=O)Cn4nc(C(F)F)c5c4C(F)(F)[C@@H]4C[C@H]54)nc4nc(C5CCC(F)(F)CC5)ccc4c3=O)ccc(Cl)c12 (atropisomer, axis not shown; (P))")
"> 50 nM"
>>> resultvalue("COCCCn1nc(NS(C)(=O)=O)c2c(Cl)ccc(-n3c([C@H](Cc4cc(F)cc(F)c4)NC(=O)Cn4nc(C(F)F)c5c4C(F)(F)[C@@H]4C[C@H]54)nc4nc(C5CCC(F)(F)CC5)cc(NCCN5CCC(F)(F)CC5)c4c3=O)c21 (atropisomer, axis not shown; (P))")
"> 20 nM"
>>> resultvalue("Cc1cc(C2CCC(F)(F)CC2)nc2nc([C@H](Cc3cc(F)cc(F)c3)NC(=O)Cn3nc(C4CC4)c4c3C[C@@H]3C[C@H]43)n(-c3ccc(Cl)c4c(NS(C)(=O)=O)nn(CCN5C[C@@H](C)OC(C)(C)C5)c34)c(=O)c12 (atropisomer, axis not shown; (P))")
"> 20 nM"
>>> resultvalue("Cc1cc(C2(F)CCC(F)(F)CC2)nc2nc([C@H](Cc3cc(F)cc(F)c3)NC(=O)Cn3nc(C4CC4)c4c3C[C@@H]3C[C@H]43)n(-c3ccc(Cl)c4c(NS(C)(=O)=O)nn([C@@H](C)CN5C[C@@H](C)O[C@@H](C)C5)c34)c(=O)c12 (relative stereo)")
"> 20 nM"
>>> resultvalue("Cc1cc(C2(F)CCC(F)(F)CC2)nc2nc([C@H](Cc3cc(F)cc(F)c3)NC(=O)Cn3nc(C4CC4)c4c3C[C@@H]3C[C@H]43)n(-c3ccc(Cl)c4c(NS(C)(=O)=O)nn(C[C@H](C)N5C[C@@H](C)O[C@@H](C)C5)c34)c(=O)c12 (relative stereo)")
"> 20 nM"
>>> resultvalue("Cc1cc(C2CCC(F)(F)CC2)nc2nc([C@H](Cc3cc(F)cc(F)c3)NC(=O)Cn3nc(C4CC4)c4c3C[C@@H]3C[C@H]43)n(-c3ccc(Cl)c4c(NS(C)(=O)=O)nn(CCN5C[C@@H](C)O[C@@H](C)C5)c34)c(=O)c12 (atropisomer, axis not shown; (P))")
"> 50 nM"

Next, consider the following molecule.
Input COCCCn1nc(NS(C)(=O)=O)c2c(Cl)ccc(-n3c([C@H](Cc4cc(F)cc(F)c4)NC(=O)Cn4nc(C(F)F)c5c4C(F)(F)[C@@H]4C[C@H]54)nc4nc(C5CCC(F)(F)CC5)cc(CN5C[C@@H](C)O[C@@H](C)C5)c4c3=O)c21 (atropisomer, axis not shown; (P)) . Output CC50 at 4 days: > 20 nM

###

assayExplanation: Compound cytotoxicity, XTT-based colorimetric assay
Format: cell-based
measurementParameters: human; uninfected MT2 cells, day 4, XTT; read-out: CC50
Listed here: items and their measured CC50 at 4 days.

>>> resultvalue("Cc1cc(C2(F)CCC(F)(F)CC2)nc2nc([C@H](Cc3cc(F)cc(F)c3)NC(=O)Cn3nc(C4CC4)c4c3C[C@@H]3C[C@H]43)n(-c3ccc(Cl)c4c(NS(C)(=O)=O)nn(CCN5CCCC5=O)c34)c(=O)c12 (relative stereo) [Example 738]")
"> 0.02 µM"
>>> resultvalue("Cc1cc(C2CCC(F)(F)CC2)nc2nc([C@H](Cc3cc(F)cc(F)c3)NC(=O)Cn3nc(C(F)F)c4c3C(F)(F)[C@@H]3C[C@H]43)n(-c3ccc(Cl)c4c(NS(C)(=O)=O)nn(CCN5CC6C(C5)C6(F)F)c34)c(=O)c12 (stereo partly shown) [Example 312]")
"> 0.05 µM"
>>> resultvalue("Cc1cc(C2(F)CCC(F)(F)CC2)nc2nc([C@H](Cc3cc(F)cc(F)c3)NC(=O)Cn3nc(C4CC4)c4c3C[C@@H]3C[C@H]43)n(-c3ccc(Cl)c4c(NS(C)(=O)=O)nn([C@H](C)C(=O)N5CC(C)(C)OC(C)(C)C5)c34)c(=O)c12 (relative stereo) [Example 750]")
"> 0.02 µM"

Attention now shifts to the item below.
# compound CC(C)[C@@H]1CN(CCn2nc(NS(C)(=O)=O)c3c(Cl)ccc(-n4c([C@H](Cc5cc(F)cc(F)c5)NC(=O)Cn5nc(C6CC6)c6c5C[C@@H]5C[C@H]65)nc5nc(C6CCC(F)(F)CC6)ccc5c4=O)c32)CCO1 (atropisomer, axis not shown; (P)) [Example 435] ; its CC50 at 4 days = > 0.02 µM

###

assayExplanation: Compound cytotoxicity, XTT-based colorimetric assay
Type: cell-based
measurementParameters: human; uninfected MT2 cells, day 4, XTT; read-out: CC50
measuredAttribute: CC50 at 4 days

>>> resultvalue("COCCCn1nc(NS(C)(=O)=O)c2c(Cl)ccc(-n3c([C@H](Cc4cc(F)cc(F)c4)NC(=O)Cn4nc(C(F)F)c5c4C(F)(F)[C@@H]4C[C@H]54)nc4nc(C5CCC(F)(F)CC5)cc(C)c4c3=O)c21 (atropisomer, axis not shown; (P)) [Example 90]")
"> 50 nM"

Now take the following compound into account.
Data point: Cc1cc(C2CCC(F)(F)CC2)nc2nc([C@H](Cc3cc(F)cc(F)c3)NC(=O)Cn3nc(C(F)F)c4c3C(F)(F)[C@@H]3C[C@H]43)n(-c3ccc(Cl)c4c(NS(C)(=O)=O)nn([C@@H](C)CN5CC(C)(C)OC(C)(C)C5)c34)c(=O)c12 (atropisomer, axis not shown; (P)) [Example 742] ; CC50 at 4 days = > 20 nM

###

assayExplanation: Compound cytotoxicity, XTT-based colorimetric assay
Type: cell-based
measurementParameters: human; uninfected MT2 cells, day 4, XTT; read-out: CC50
measuredAttribute: CC50 at 4 days

>>> resultvalue("Cc1cc(C2CCC(F)(F)CC2)nc2nc([C@H](Cc3cc(F)cc(F)c3)NC(=O)Cn3nc(C(F)F)c4c3C(F)(F)[C@@H]3C[C@H]43)n(-c3ccc(Cl)c4c(NS(C)(=O)=O)nn(CCN5C[C@@H](C)OC(C)(C)C5)c34)c(=O)c12 (atropisomer, axis not shown; (P))")
"> 0.02 µM"

Shift focus to the following entry.
Looking up Cc1cc(C2(F)CCC(F)(F)CC2)nc2nc([C@H](Cc3cc(F)cc(F)c3)NC(=O)Cn3nc(C(F)(F)F)c4c3C[C@@H]3C[C@H]43)n(-c3ccc(Cl)c4c(NS(C)(=O)=O)nn(CCN5C[C@@H](C)O[C@@H](C)C5)c34)c(=O)c12 (atropisomer, axis not shown; (P)) , I found its CC50 at 4 days recorded as > 0.02 µM
